Tested on: SF-295
Test: NCI60 one-dose screen
Assay type: cell-based
Conditions: Homo sapiens; SF-295, 10 μM; read-out: Growth percent
Procedure: The screening results are presented in the Supplementary Materials (Table S1), where the cytotoxicity was determined for the 10 µM concentration. […] The negative numbers indicate significant decreases in the cell number. […] Following drug addition, the plates were incubated at 37 °C, 5% carbon dioxide, 95% air, and 100% relative humidity for an additional 48 hours. […] Growth inhibition (%) was calculated as: […]
assay endpoint: activity at 10 µM

1) O=c1cc(-c2ccccc2)oc2cc(OCCCC[P+](c3ccc(F)cc3)(c3ccc(F)cc3)c3ccc(F)cc3)cc(O)c12 [3d] :: -74%
2) O=c1cc(-c2ccccc2)oc2cc(O)cc(O)c12 [compound 2, 5,7-dihydroxyflavone, reference compound] :: 99.9%
3) Cc1ccccc1[P+](CCCCOc1cc(O)c2c(=O)cc(-c3ccccc3)oc2c1)(c1ccccc1C)c1ccccc1C [3g] :: -98.7%
4) Cc1ccc([P+](CCCCOc2cc(O)c3c(=O)cc(-c4ccccc4)oc3c2)(c2ccc(C)cc2)c2ccc(C)cc2)cc1 [3b] :: -91.3%
5) O=c1cc(-c2ccccc2)oc2cc(OCCCC[P+](c3ccccc3)(c3ccccc3)c3ccccn3)cc(O)c12 [3h] :: -92.7%
6) COc1c(C)cc([P+](CCCCOc2cc(O)c3c(=O)cc(-c4ccccc4)oc3c2)(c2cc(C)c(OC)c(C)c2)c2cc(C)c(OC)c(C)c2)cc1C [3f] :: -63.6%
7) O=c1cc(-c2ccccc2)oc2cc(OCCCC[P+](c3ccccc3)(c3ccccc3)c3ccccc3)cc(O)c12 [3a] :: -96%
8) COc1ccc([P+](CCCCOc2cc(O)c3c(=O)cc(-c4ccccc4)oc3c2)(c2ccc(OC)cc2)c2ccc(OC)cc2)cc1 [3c] :: -73.8%
9) O=c1cc(-c2ccccc2)oc2cc(OCCCC[P+](C3CCCCC3)(C3CCCCC3)C3CCCCC3)cc(O)c12 [3e] :: -87%

---

These records show GI50 for LOX IMVI.
assay endpoint: GI50 (nM)

1. COc1ccc([P+](CCCCOc2cc(O)c3c(=O)cc(-c4ccccc4)oc3c2)(c2ccc(OC)cc2)c2ccc(OC)cc2)cc1 [3c] :: 355
2. Cc1ccccc1[P+](CCCCOc1cc(O)c2c(=O)cc(-c3ccccc3)oc2c1)(c1ccccc1C)c1ccccc1C [3g] :: 170
3. O=c1cc(-c2ccccc2)oc2cc(OCCCC[P+](c3ccccc3)(c3ccccc3)c3ccccc3)cc(O)c12 [3a] :: 326
4. O=c1cc(-c2ccccc2)oc2cc(OCCCC[P+](c3ccc(F)cc3)(c3ccc(F)cc3)c3ccc(F)cc3)cc(O)c12 [3d] :: 1690
5. O=c1cc(-c2ccccc2)oc2cc(OCCCC[P+](c3ccccc3)(c3ccccc3)c3ccccn3)cc(O)c12 [3h] :: 694
6. O=c1cc(-c2ccccc2)oc2cc(OCCCC[P+](C3CCCCC3)(C3CCCCC3)C3CCCCC3)cc(O)c12 [3e] :: 938
7. COc1c(C)cc([P+](CCCCOc2cc(O)c3c(=O)cc(-c4ccccc4)oc3c2)(c2cc(C)c(OC)c(C)c2)c2cc(C)c(OC)c(C)c2)cc1C [3f] :: 284
8. Cc1ccc([P+](CCCCOc2cc(O)c3c(=O)cc(-c4ccccc4)oc3c2)(c2ccc(C)cc2)c2ccc(C)cc2)cc1 [3b] :: 287

---

Observed GI50, system MDA-MB231ATCC.
assay endpoint: GI50 (nM)

1. O=c1cc(-c2ccccc2)oc2cc(OCCCC[P+](c3ccc(F)cc3)(c3ccc(F)cc3)c3ccc(F)cc3)cc(O)c12 [3d] :: 1910
2. COc1ccc([P+](CCCCOc2cc(O)c3c(=O)cc(-c4ccccc4)oc3c2)(c2ccc(OC)cc2)c2ccc(OC)cc2)cc1 [3c] :: 315
3. COc1c(C)cc([P+](CCCCOc2cc(O)c3c(=O)cc(-c4ccccc4)oc3c2)(c2cc(C)c(OC)c(C)c2)c2cc(C)c(OC)c(C)c2)cc1C [3f] :: 258
4. O=c1cc(-c2ccccc2)oc2cc(OCCCC[P+](c3ccccc3)(c3ccccc3)c3ccccn3)cc(O)c12 [3h] :: 906
5. Cc1ccccc1[P+](CCCCOc1cc(O)c2c(=O)cc(-c3ccccc3)oc2c1)(c1ccccc1C)c1ccccc1C [3g] :: 337
6. O=c1cc(-c2ccccc2)oc2cc(OCCCC[P+](c3ccccc3)(c3ccccc3)c3ccccc3)cc(O)c12 [3a] :: 240
7. O=c1cc(-c2ccccc2)oc2cc(OCCCC[P+](C3CCCCC3)(C3CCCCC3)C3CCCCC3)cc(O)c12 [3e] :: 366
8. Cc1ccc([P+](CCCCOc2cc(O)c3c(=O)cc(-c4ccccc4)oc3c2)(c2ccc(C)cc2)c2ccc(C)cc2)cc1 [3b] :: 320

---

Test system: OVCAR-5
Please respond with y when measured GI50 is strictly beneath 1000 nM, and with n in all other cases.

1) O=c1cc(-c2ccccc2)oc2cc(OCCCC[P+](c3ccccc3)(c3ccccc3)c3ccccc3)cc(O)c12 [3a] :: n
2) Cc1ccc([P+](CCCCOc2cc(O)c3c(=O)cc(-c4ccccc4)oc3c2)(c2ccc(C)cc2)c2ccc(C)cc2)cc1 [3b] :: y
3) Cc1ccccc1[P+](CCCCOc1cc(O)c2c(=O)cc(-c3ccccc3)oc2c1)(c1ccccc1C)c1ccccc1C [3g] :: n
4) COc1c(C)cc([P+](CCCCOc2cc(O)c3c(=O)cc(-c4ccccc4)oc3c2)(c2cc(C)c(OC)c(C)c2)c2cc(C)c(OC)c(C)c2)cc1C [3f] :: y
5) O=c1cc(-c2ccccc2)oc2cc(OCCCC[P+](c3ccc(F)cc3)(c3ccc(F)cc3)c3ccc(F)cc3)cc(O)c12 [3d] :: n
6) O=c1cc(-c2ccccc2)oc2cc(OCCCC[P+](c3ccccc3)(c3ccccc3)c3ccccn3)cc(O)c12 [3h] :: n
7) O=c1cc(-c2ccccc2)oc2cc(OCCCC[P+](C3CCCCC3)(C3CCCCC3)C3CCCCC3)cc(O)c12 [3e] :: n
8) COc1ccc([P+](CCCCOc2cc(O)c3c(=O)cc(-c4ccccc4)oc3c2)(c2ccc(OC)cc2)c2ccc(OC)cc2)cc1 [3c] :: y

---

System: HOP-92
Assay: NCI60 one-dose screen
Format: cell-based, human
Conditions: HOP-92, 10 μM
Experimental: The screening results are presented in the Supplementary Materials (Table S1), where the cytotoxicity was determined for the 10 µM concentration. […] The negative numbers indicate significant decreases in the cell number. […] Following drug addition, the plates were incubated at 37 °C, 5% carbon dioxide, 95% air, and 100% relative humidity for an additional 48 hours. […] Growth inhibition (%) was calculated as: […]
Assign Yes whenever Growth percent does not fall below -80%; assign No whenever it does.

1. COc1c(C)cc([P+](CCCCOc2cc(O)c3c(=O)cc(-c4ccccc4)oc3c2)(c2cc(C)c(OC)c(C)c2)c2cc(C)c(OC)c(C)c2)cc1C :: Yes
2. O=c1cc(-c2ccccc2)oc2cc(OCCCC[P+](c3ccccc3)(c3ccccc3)c3ccccn3)cc(O)c12 :: Yes
3. Cc1ccccc1[P+](CCCCOc1cc(O)c2c(=O)cc(-c3ccccc3)oc2c1)(c1ccccc1C)c1ccccc1C :: No
4. O=c1cc(-c2ccccc2)oc2cc(OCCCC[P+](C3CCCCC3)(C3CCCCC3)C3CCCCC3)cc(O)c12 :: Yes
5. O=c1cc(-c2ccccc2)oc2cc(O)cc(O)c12 [compound 2, 5,7-dihydroxyflavone, reference compound] :: Yes

---

Test system: Prostate Cancer panel
assay endpoint: GI50

1) O=c1cc(-c2ccccc2)oc2cc(OCCCC[P+](c3ccccc3)(c3ccccc3)c3ccccn3)cc(O)c12 :: 900 nM
2) O=c1cc(-c2ccccc2)oc2cc(OCCCC[P+](c3ccc(F)cc3)(c3ccc(F)cc3)c3ccc(F)cc3)cc(O)c12 :: 1740 nM
3) O=c1cc(-c2ccccc2)oc2cc(OCCCC[P+](c3ccccc3)(c3ccccc3)c3ccccc3)cc(O)c12 :: 410 nM
4) COc1c(C)cc([P+](CCCCOc2cc(O)c3c(=O)cc(-c4ccccc4)oc3c2)(c2cc(C)c(OC)c(C)c2)c2cc(C)c(OC)c(C)c2)cc1C :: 310 nM
5) COc1ccc([P+](CCCCOc2cc(O)c3c(=O)cc(-c4ccccc4)oc3c2)(c2ccc(OC)cc2)c2ccc(OC)cc2)cc1 :: 370 nM
6) O=c1cc(-c2ccccc2)oc2cc(OCCCC[P+](C3CCCCC3)(C3CCCCC3)C3CCCCC3)cc(O)c12 :: 870 nM
7) Cc1ccccc1[P+](CCCCOc1cc(O)c2c(=O)cc(-c3ccccc3)oc2c1)(c1ccccc1C)c1ccccc1C :: 340 nM
8) Cc1ccc([P+](CCCCOc2cc(O)c3c(=O)cc(-c4ccccc4)oc3c2)(c2ccc(C)cc2)c2ccc(C)cc2)cc1 :: 200 nM
